Task for the reader: assign each of the following binders its reported kd ratio pH 7.4/6.0.
biological target: T1, human FcRn/b2M (human, UniProt P61769 21-119, biotinylated); assay: SPR off-rate; pH 7.4 vs pH 6.0;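 also: surface plasmon resonance with diluted periplasmic extracts flowed over ligand surfaces, 120 s association and 600–3600 s dissociation at 25 °C, running buffer containing 150 mM NaCl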
T1 construct: bought recombinant biotinylated protein (ACRO FCM-H82W4 or Immunitrack ITF01); also called hFcRn; hFcRn/hb2M
T1 sequence (chain, as listed by the source limits assumed, chain 1 of 2): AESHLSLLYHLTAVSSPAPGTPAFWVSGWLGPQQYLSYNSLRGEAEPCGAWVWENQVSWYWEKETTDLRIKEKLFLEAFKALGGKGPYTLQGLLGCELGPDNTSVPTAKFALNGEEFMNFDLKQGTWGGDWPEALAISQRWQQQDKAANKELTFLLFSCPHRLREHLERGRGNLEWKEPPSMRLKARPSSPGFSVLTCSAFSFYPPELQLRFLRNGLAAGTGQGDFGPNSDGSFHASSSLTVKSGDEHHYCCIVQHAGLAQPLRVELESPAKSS
T1 sequence (P61769 21-119 limits assumed, chain 2 of 2): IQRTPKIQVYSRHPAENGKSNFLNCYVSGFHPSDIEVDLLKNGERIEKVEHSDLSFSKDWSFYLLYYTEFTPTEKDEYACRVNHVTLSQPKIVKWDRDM
Just the number, please.

Query :: Please look up its kd ratio pH 7.4/6.0: T0263018B11 D58E (VHH, name in Kabat numbering, FLAG3-His6 tagged) VHH: EVQLVESGGGVVQPGGSLRLSCAASGFTFSSYAMYWVRQAPGKGLEWVSAISSGGGSTEYADSVKGRFTISRDNSKNTLYLQMNSLRPEDTALYYCAADTLYTSLTWYSYWGQGTLVTVSS
Result :: 33

Query :: Query (binder): T0263018B11 Y102T (VHH, name in Kabat numbering, FLAG3-His6 tagged) VHH: EVQLVESGGGVVQPGGSLRLSCAASGFTFSSYAMYWVRQAPGKGLEWVSAISSGGGSTDYADSVKGRFTISRDNSKNTLYLQMNSLRPEDTALYYCAADTLYTSLTWYSTWGQGTLVTVSS ; field requested: kd ratio pH 7.4/6.0
Result :: 38
